system: HT29 colon; assay: NCI-60 one-dose screen, 48 h; details: 10 µM unless noted
The panel holds about 83,000 compounds, 20% with a hit somewhere; the sample as a whole holds those more often. Calls of active or inactive are those of the source. The calls were made as follows: active = growth percent below 10; inactive = the rest.
Choose the fitting class; nothing outside 1 (yes) (active), 0 (no) (inactive) is accepted.

Could you kindly confirm the outcome this assay logged for `Oc1cccc(Nc2nc(-c3ccccn3)cs2)c1` ?
0 (no)

Could you kindly confirm the outcome this assay logged for `COC(=O)c1c2c(c(C)[n+]([O-])c1C)C(=O)C=C(NCc1ccc(F)c(Cl)c1)C2=O` ?
1 (yes)

Could you kindly confirm the outcome this assay logged for `O=C1C(N2CCOCC2)=Cc2cccc3cccc1c23` ?
0 (no)

Could you kindly confirm the outcome this assay logged for CCOC(=O)c1cn2c3c(cc(F)cc3c1=O)C(CC)c1ccccc1C2 (stereo unspecified) ?
0 (no)

Could you kindly confirm the outcome this assay logged for `COc1ncc(F)c(OC)n1` ?
0 (no)

Could you kindly confirm the outcome this assay logged for O=C1CN2CCC1C/C2=C\c1ccnc2c(Cl)cccc12 (stereo unspecified) ?
0 (no)

Could you kindly confirm the outcome this assay logged for `Cc1cc(=O)c2c(C)ccc(C)c2[nH]1` ?
0 (no)

Could you kindly confirm the outcome this assay logged for `Cc1nc2cc(Nc3nc(NCCO)nc(Nc4ccc(F)cc4)n3)ccc2n1Cc1ccccc1` ?
0 (no)

Could you kindly confirm the outcome this assay logged for `C(=C\c1ccccc1)/CN1CCN(C(c2ccccc2)c2ccccc2)CC1` ?
0 (no)

Could you kindly confirm the outcome this assay logged for `O=C1C(OCCOc2ccccc2)=C(OCCOc2ccccc2)C(=O)c2ccccc21` ?
0 (no)

Could you kindly confirm the outcome this assay logged for `O=C(NCc1ccco1)C1CCN(S(=O)(=O)c2ccc(Cl)cc2)CC1` ?
0 (no)
